Assayed Target: PI3K (Homo sapiens)
Construct: PI3 Kinase γ IC50; other: PI3 Kinase γ; other: PI3 Kinase γ isoform, fluorescence polarization
Sequence (P48736 whole entry, canonical isoform): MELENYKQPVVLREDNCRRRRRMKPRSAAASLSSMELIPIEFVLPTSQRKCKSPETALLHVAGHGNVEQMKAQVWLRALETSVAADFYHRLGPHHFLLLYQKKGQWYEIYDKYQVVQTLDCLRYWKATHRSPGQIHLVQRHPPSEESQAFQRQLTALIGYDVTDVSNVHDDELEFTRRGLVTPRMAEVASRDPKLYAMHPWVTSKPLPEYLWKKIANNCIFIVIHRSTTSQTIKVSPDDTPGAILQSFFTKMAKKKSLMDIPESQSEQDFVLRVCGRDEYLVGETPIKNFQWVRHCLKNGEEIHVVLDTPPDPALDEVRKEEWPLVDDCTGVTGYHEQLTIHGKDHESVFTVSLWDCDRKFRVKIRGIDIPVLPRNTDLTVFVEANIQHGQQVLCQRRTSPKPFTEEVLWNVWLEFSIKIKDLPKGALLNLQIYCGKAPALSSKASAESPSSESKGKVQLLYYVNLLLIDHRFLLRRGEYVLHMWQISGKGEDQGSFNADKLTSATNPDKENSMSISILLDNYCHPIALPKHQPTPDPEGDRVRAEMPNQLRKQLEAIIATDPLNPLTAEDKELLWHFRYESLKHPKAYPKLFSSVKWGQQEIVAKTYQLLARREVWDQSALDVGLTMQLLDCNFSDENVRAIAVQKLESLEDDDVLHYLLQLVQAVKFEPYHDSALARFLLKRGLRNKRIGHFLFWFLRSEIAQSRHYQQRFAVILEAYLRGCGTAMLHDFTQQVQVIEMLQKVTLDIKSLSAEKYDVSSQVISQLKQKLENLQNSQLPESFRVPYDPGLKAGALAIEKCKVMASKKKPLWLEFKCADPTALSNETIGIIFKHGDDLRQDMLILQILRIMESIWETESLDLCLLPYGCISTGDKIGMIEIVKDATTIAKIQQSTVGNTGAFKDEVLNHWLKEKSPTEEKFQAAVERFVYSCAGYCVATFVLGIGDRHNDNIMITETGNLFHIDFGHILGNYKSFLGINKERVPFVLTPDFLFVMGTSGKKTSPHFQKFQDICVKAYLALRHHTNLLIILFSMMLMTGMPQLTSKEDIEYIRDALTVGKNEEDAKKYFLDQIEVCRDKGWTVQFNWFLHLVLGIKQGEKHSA
Measurement Notes: Fluorescence polarization assay for PI3K
Format: biochemical
Experimental Parameters: PI3 Kinase γ isoform, fluorescence polarization; read-out: PI3 Kinase γ IC50

Compound	Assayed Target	IC50 (nM)
CN1CCN(Cc2cc3nc(-c4ccc(NC(=O)Nc5ccc(C(N)=O)cc5)cc4)nc(N4CC5CCC(C4)O5)c3s2)CC1 [Example 428]	PI3K (Homo sapiens)	815
CN1CCN(Cc2cc3nc(-c4ccc(NC(=O)Nc5ccncc5)cc4)nc(N4CC5CCC(C4)O5)c3s2)CC1 [Example 427]	PI3K (Homo sapiens)	1270
CN1CCN(c2ccc(NC(=O)Nc3ccc(-c4nc(N5CC6CCC(C5)O6)c5cnn([C@H]6CC[C@@H](O)CC6)c5n4)cc3)cc2)CC1 (relative stereo) [Example 405]	PI3K (Homo sapiens)	1360
